The measured values listed here are drawn from paper PMC4552634.

Please go through the items and note down their % Inhibition.
Tested on: P. falciparum stage V gametocytes
Parameters: BacTiter-Glo ATP luminescence viability of purified stage V gametocytes in 384-well plates, per cent inhibition versus DMSO
Settings: 48 h, 5 µM; inhibitor
Out of some 13,000 compounds screened, about 3,200 (25%) showed an effect of 50% or more. Some of the results follow.
Remember to put the unit after the number in your answer.

Example cases with answers are listed next.
COc1ccc(Br)cc1C1C2C(=O)N(c3ccc(Br)cc3)C(=O)C2C2(C(=O)O)CC(OCc3ccccc3)CN12 (stereo not shown) [TCMDC-139264]    14.59%
CN1CCC(c2cc3c(cc2Br)CCN3C(=O)Nc2ccc(-c3ccncc3)c(Cl)c2)CC1 [TCMDC-139228]    3.26%
CN1CCCC(COc2cc3c(cc2Br)CCN3C(=O)Nc2ccc(-c3ccncc3)c(Cl)c2)C1 (stereo not shown) [TCMDC-139230]    96.61%

Which value of % Inhibition has been reported for CN1CCC[C@@H](Oc2cc3c(cc2Br)CCN3C(=O)Nc2ccc(-c3ccncc3)c(Cl)c2)C1 [TCMDC-139237] in the records? -19.19%

###

Test system: P. falciparum stage V gametocytes
Parameters: BacTiter-Glo ATP luminescence viability of purified stage V gametocytes in 384-well plates, per cent inhibition versus DMSO
Details: 48 h, 5 µM; inhibitor
Hit rate of the full screen: of about 13,000 compounds, about 3,200 (25%) showed an effect of 50% or more. The list shows a part of the results.
measured_endpoint: % Inhibition (%)
Give bare numbers, in %.

Example cases with answers are listed next.
CN1CCCC(CN2CCN(Cc3cccc(-c4ccc(-c5nc6ccccc6[nH]5)s4)c3)CC2)C1.O=C(O)C(F)(F)F (centres unmarked)    49.15
CCc1cc(NC2CCN(C)CC2)nc(Nc2cccc(OC)c2)n1    40.04
Cc1ccc(C)c2c1[nH]c1ccc(C3=NCCN3)cc12    24.52
Cc1[nH]c(C)c(-c2ccc(Oc3ccc([S+](C)[O-])cc3)cc2)c(=O)c1Br (centres unmarked)    34.54
COc1cc(-c2cc(-c3ccc(OCCN(C)C)cc3)[nH]c2-c2ccncc2)ccc1Cl    -2.677
CC1(C)N=C(N)N=C(N)N1OCCOc1ccc(Cc2ccccc2)cc1    0.9057
COc1cc(-c2nnc(SCC(=O)Nc3cc(C)on3)n2C)cc(OC)c1O    -77.31
Cc1[nH]c(C)c(-c2ccc(OCc3ccc(F)cc3)cc2)c(=O)c1Br    4.156

# batch size: 5; output % Inhibition per entry
1. Cc1[nH]c(C)c(-c2ccc(-c3ccc(F)cc3)cc2)c(=O)c1Br
2. Cc1cccc(OCC(=O)Nc2cccc(NC(=O)COc3cccc(C)c3)n2)c1
3. Cc1cccc2nc(-c3ccc(-c4ccc(CN5CCN(c6ccncc6)CC5)cc4)s3)[nH]c12.O=C(O)C(F)(F)F
4. C=CCc1cc(C2CCN(CCCCNC(=O)c3ccc(-c4ccc(C#N)cc4)cc3)CC2)c(OCC(N)=O)c2c1CCCC2
5. CC1(C)N=C(N)N=C(N)N1c1ccc(Br)cc1

[28.52, 22.25, 36.62, -14.83, 18.18]

# batch size: 7; output % Inhibition per entry
1. CCCNC(=O)Nc1cc2cc(-c3ccc(CN4CCCC4)cc3)ccc2n2c(C)nnc12
2. C=C(C)CSc1nc2c(c(=O)n1Cc1ccco1)C1(CCCCC1)Cc1ccccc1-2
3. Cc1cccc2nc(-c3ccc(-c4ccc(CN5CCCCC5)cc4)s3)[nH]c12.O=C(O)C(F)(F)F
4. O=[N+]([O-])c1ccccc1/C=N/Nc1ccnc2ccc(C(F)(F)F)cc12
5. Cc1[nH]c(C)c(-c2ccc(Oc3ccccc3)cc2)c(=O)c1Br
6. Cc1ccc(CN2CCCN(Cc3cccc(NC(=O)c4ccc(-c5ccccc5)cc4)c3)CC2)cc1C
7. COc1ccc(Nc2nccc(NCC(O)c3ccc(C(F)(F)F)cc3)n2)cc1 (centres unmarked)

108.6
6.726
-19.5
-33.57
67.24
-43.17
-79.42

# batch size: 8; output % Inhibition per entry
1. COCCCNc1sc(S(=O)(=O)c2ccccc2)nc1S(=O)(=O)c1ccc(Cl)cc1
2. CC1(C)CCC(=Cc2ccc(Cl)cc2)CC1(O)Cn1ccnc1 (centres unmarked)
3. CN1CCN(c2ccnc3ccc(NC(=O)Nc4ccc5c(c4)CCC5=O)cc23)CC1
4. Cc1[nH]c(C)c(-c2ccc(Oc3ccc(F)cc3)cc2)c(=O)c1Br
5. COc1cccc2cc(C(=O)N[C@@H](CC(C)C)C(=O)N[C@H](C=NN3CCOC3=O)CC(C)C)oc12
6. COc1ccc(N2C(N)=NC(N)=NC2(C)C)cc1OC
7. C=CCOC(=O)O[C@@H]1[C@@H](OC(=O)OCC=C)[C@@H](OC)O[C@H](COC(c2ccccc2)(c2ccccc2)c2ccccc2)[C@H]1OC(=O)OCC=C
8. Cc1ccc(NS(=O)(=O)c2ccc(-c3ccccc3)cc2)c(Cn2cnc(N3CCCNCC3)cc2=O)c1

1. -6.212
2. 20.04
3. 0.4556
4. 76.64
5. 12.6
6. 18.93
7. 34.95
8. 3.416

###

Test system: P. falciparum stage V gametocytes
Parameters: BacTiter-Glo ATP luminescence viability of purified stage V gametocytes in 384-well plates, per cent inhibition versus DMSO
Conditions: 48 h, 5 µM; inhibitor
Hit rate of the full screen: of about 13,000 compounds, about 3,200 (25%) showed an effect of 50% or more. The list shows a part of the results.
Please go through the items and note down their % Inhibition.

Example cases with answers are listed next.
CCNc1cc(C(=O)N[C@@H](Cc2ccccc2)[C@H](O)CN[C@@H](C)c2ccccc2)cc(N2CCCC2=O)c1    8.317%
Cc1ccc(NC(=O)c2ccc(CN3CCCN(CC4CCCCC4)CC3)cc2)cc1F    -36.95%
COc1ccc(CNC2CCN(C)CC2)cc1-c1ccc(S(=O)(=O)NCc2ccccc2)c(F)c1    59.53%

# batch size: 5; output % Inhibition per entry
1. COc1ccc(CNC2CCN(C)CC2)cc1-c1ccc(OC)c(S(=O)(=O)NCc2ccccc2)c1
2. CCCCCC(C)(C)NC[C@@H](O)[C@H](Cc1ccccc1)NC(=O)c1cc(NCC)cc(N2CCCC2=O)c1
3. CCNc1cc(C(=O)N[C@@H](Cc2ccccc2)[C@H](O)CN[C@@H](C)c2cccc(OC)c2)cc(N2CCCC2=O)c1
4. CCCCN(C(=O)c1ccccc1C)c1nnc(-c2ccccc2C)s1
5. CCNc1cc(C(=O)N[C@@H](Cc2ccccc2)[C@H](O)CNC(C)(C)CSCC(C)C)cc(N2CCCC2=O)c1

105.1%
10.89%
-0.5109%
52.67%
69.93%

# batch size: 5; output % Inhibition per entry
1. CC(C)(C)c1ccc(NC(=O)Nc2ccc(Cn3ncc(N4CCCNCC4)c(Cl)c3=O)cc2)cc1
2. CN1CC=C(c2c[nH]c3ccc(-c4ccccc4)cc23)CC1
3. CCNc1cc(C(=O)N[C@@H](Cc2ccccc2)[C@H](O)CNC(CC)c2cccc(Cl)c2)cc(N2CCCC2=O)c1 (stereo partly drawn)
4. COc1ccc(CNC2CCN(C)CC2)cc1-c1ccc(S(=O)(=O)NCc2ccccc2)c(C)c1
5. CCNc1cc(C(=O)N[C@@H](Cc2ccccc2)[C@H](O)CNC(CC)c2cccc(Cl)c2)cc(N2CCCCS2(=O)=O)c1 (stereo partly drawn)

-23.28%
-5.151%
64.68%
85.24%
3.057%

# batch size: 2; output % Inhibition per entry
1. CC(C)NC(C)(C)CN(Cc1ccc(-c2ccc(C(F)(F)F)cc2)cc1)C(=O)Cn1c(CCc2cccc(F)c2F)nc(=O)c2ccccc21
2. COc1ccc(-c2cccc(CNC3CCN(C)CC3)c2)cc1S(=O)(=O)NCc1ccccc1

1: 71.8%; 2: 75.59%

###

Test system: P. falciparum stage V gametocytes
Design: BacTiter-Glo ATP luminescence viability of purified stage V gametocytes in 384-well plates, per cent inhibition versus DMSO
Details: 48 h, 5 µM; inhibitor
The whole screen tested about 13,000 compounds, of which about 3,200 (25%) showed an effect of 50% or more. The list shows a part of the results.
Please go through the items and note down their % Inhibition.
Remember to put the unit after the number in your answer.

Example cases with answers are listed next.
CN(C)c1ccc(/C=C2\S/C(=N\c3ccccc3)N(c3ccccc3)C2=O)cc1[N+](=O)[O-]    -8.825%
CC1CCN(c2nc(C(=O)Nc3ccc(F)cc3C(F)(F)F)c(C(C)C)s2)CC1    -14.15%
CCc1cccc(-n2c(=O)c3cccnc3n2CC(=O)NCc2ccccc2Cl)c1    19.11%

Notebook entry, P. falciparum stage V gametocytes assay: % Inhibition of Cc1ccc(C)c2sc(N(CCCn3ccnc3)C(=O)C=Cc3cccs3)nc12 = ? 12.01%
